Conditions: pampa, pH 7.4, 100 µM
Description: Effective permeability of the compound in PBS buffer at pH 7.4 at 100 uM after 3 to 6 hrs by PAMPA
Readout Kind: permeability

>>> reported_result("O=C(CCCCCNc1c2c(nc3cc(Cl)ccc13)CCCC2)NCCc1cc2ccccc2[nH]1")
"Permeable"
>>> reported_result("COc1ccc2nc3c(c(N)c2c1)CCCC3")
"Permeable"
>>> reported_result("Cl.Cl.N[C@@H](Cc1c[nH]c2ccccc12)C(=O)NCCNc1c2c(nc3ccccc13)CCCC2")
"Impermeable"
>>> reported_result("Cl.Cl.N[C@@H](Cc1c[nH]c2ccccc12)C(=O)NCCCNc1c2c(nc3ccccc13)CCCC2")
"Impermeable"
>>> reported_result("COc1ccc2nc3c(c(NCCCNC(=O)[C@@H](N)Cc4c[nH]c5ccccc45)c2c1)CCCC3.Cl.Cl")
"Impermeable"
>>> reported_result("Cl.Cl.N[C@@H](Cc1c[nH]c2ccccc12)C(=O)NCCCCCNc1c2c(nc3ccccc13)CCCC2")
"Impermeable"
>>> reported_result("Cl.Cl.N[C@@H](Cc1c[nH]c2ccccc12)C(=O)NCCCCCCCNc1c2c(nc3ccccc13)CCCC2")
"Impermeable"
>>> reported_result("Cl.Cl.N[C@@H](Cc1c[nH]c2ccccc12)C(=O)NCCCCCCCNc1c2c(nc3cc(Cl)ccc13)CCCC2")
"Permeable"
>>> reported_result("Cl.Cl.N[C@@H](Cc1c[nH]c2ccccc12)C(=O)NCCCCCCCCNc1c2c(nc3cc(Cl)ccc13)CCCC2")
"Permeable"

* * *

Test system: HepG2
Test: cells
Conditions: Homo sapiens, HepG2, 24 h
Description: Cytotoxicity against human HepG2 cells assessed as reduction in cell viability incubated for 24 hrs by MTT assay
pIC50: −log10 of the molar value.
Let's look at some molecules and their measured pIC50.
Readout Kind: pIC50

>>> reported_result("Nc1c2c(nc3cc(Cl)ccc13)CCCC2")
4.15
>>> reported_result("Cl.Cl.NC(Cc1c[nH]c2ccccc12)C(=O)NCCCCCCNc1c2c(nc3cc(Cl)ccc13)CCCC2 (racemic)")
5.29
>>> reported_result("COc1ccc2nc3c(c(NCCCCCCNC(=O)[C@@H](N)Cc4c[nH]c5ccccc45)c2c1)CCCC3")
4.80
>>> reported_result("Cl.Cl.N[C@H](Cc1c[nH]c2ccccc12)C(=O)NCCCCCCNc1c2c(nc3cc(Cl)ccc13)CCCC2")
5.38
>>> reported_result("Cl.Cl.N[C@@H](Cc1c[nH]c2ccccc12)C(=O)NCCCCCCNc1c2c(nc3ccccc13)CCCC2")
4.59
>>> reported_result("COc1ccc2nc3c(c(NCCCCCCCNC(=O)[C@@H](N)Cc4c[nH]c5ccccc45)c2c1)CCCC3")
5.25
>>> reported_result("COc1ccc2nc3c(c(N)c2c1)CCCC3")
3.92
>>> reported_result("N[C@@H](Cc1c[nH]c2ccccc12)C(=O)NCCCCCCCCNc1c2c(nc3ccccc13)CCCC2")
5.03
>>> reported_result("N[C@@H](Cc1c[nH]c2ccccc12)C(=O)O [TRYPTOPHAN]")
1.77
>>> reported_result("Cl.Cl.N[C@@H](Cc1c[nH]c2ccccc12)C(=O)NCCCCCCNc1c2c(nc3cc(Cl)ccc13)CCCC2")
5.31
>>> reported_result("Cl.Cl.N[C@@H](Cc1c[nH]c2ccccc12)C(=O)NCCCCCCCNc1c2c(nc3cc(Cl)ccc13)CCCC2")
5.22

* * *

Molecular target: Nitric oxide synthase 1 (Rattus norvegicus)
Sequence (P29476 whole entry, looked up): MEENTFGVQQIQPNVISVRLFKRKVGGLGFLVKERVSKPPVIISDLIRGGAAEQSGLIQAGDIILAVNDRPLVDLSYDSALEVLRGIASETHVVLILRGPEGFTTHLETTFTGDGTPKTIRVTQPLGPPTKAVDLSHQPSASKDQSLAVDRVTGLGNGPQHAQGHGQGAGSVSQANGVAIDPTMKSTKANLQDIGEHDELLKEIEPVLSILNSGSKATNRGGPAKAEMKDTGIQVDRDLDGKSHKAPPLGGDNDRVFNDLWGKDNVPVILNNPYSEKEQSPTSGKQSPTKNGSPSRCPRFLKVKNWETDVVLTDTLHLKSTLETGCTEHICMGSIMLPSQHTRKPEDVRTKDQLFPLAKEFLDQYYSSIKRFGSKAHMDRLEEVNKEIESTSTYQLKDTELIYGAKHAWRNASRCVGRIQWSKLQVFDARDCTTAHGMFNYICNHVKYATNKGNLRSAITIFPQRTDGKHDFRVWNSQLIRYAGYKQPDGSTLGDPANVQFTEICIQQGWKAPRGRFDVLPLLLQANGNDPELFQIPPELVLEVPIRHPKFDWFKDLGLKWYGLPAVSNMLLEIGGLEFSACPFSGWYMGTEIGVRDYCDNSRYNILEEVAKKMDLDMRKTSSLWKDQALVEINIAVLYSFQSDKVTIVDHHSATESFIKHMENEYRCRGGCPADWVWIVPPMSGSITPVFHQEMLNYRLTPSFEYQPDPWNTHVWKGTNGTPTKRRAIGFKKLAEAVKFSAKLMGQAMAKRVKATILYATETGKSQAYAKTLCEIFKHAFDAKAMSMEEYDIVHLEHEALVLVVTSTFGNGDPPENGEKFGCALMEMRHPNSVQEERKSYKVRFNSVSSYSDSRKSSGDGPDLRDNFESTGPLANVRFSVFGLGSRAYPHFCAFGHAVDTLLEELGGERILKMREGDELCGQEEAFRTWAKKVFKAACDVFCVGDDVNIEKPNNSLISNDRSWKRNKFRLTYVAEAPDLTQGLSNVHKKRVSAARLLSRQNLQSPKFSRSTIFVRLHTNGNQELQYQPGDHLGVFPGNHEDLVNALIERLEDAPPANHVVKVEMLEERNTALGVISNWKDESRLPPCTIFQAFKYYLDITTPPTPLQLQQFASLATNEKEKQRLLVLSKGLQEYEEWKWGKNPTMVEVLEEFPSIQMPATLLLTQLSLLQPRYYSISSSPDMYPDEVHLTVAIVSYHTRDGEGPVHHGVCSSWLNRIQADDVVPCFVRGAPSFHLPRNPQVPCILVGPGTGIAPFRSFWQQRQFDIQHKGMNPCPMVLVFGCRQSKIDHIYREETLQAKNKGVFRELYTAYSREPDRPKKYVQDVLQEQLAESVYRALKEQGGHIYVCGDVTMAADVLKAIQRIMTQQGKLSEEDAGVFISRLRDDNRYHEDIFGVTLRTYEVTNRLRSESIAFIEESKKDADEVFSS
Rule: IC50 below 30 µM gives class 1. Equal to or above 30 µM gives class 0.

>>> assigned_category("Cl.Cl.N[C@H](Cc1c[nH]c2ccccc12)C(=O)NCCCCCCNc1c2c(nc3cc(Cl)ccc13)CCCC2")
"class 1"
>>> assigned_category("Cl.Cl.N[C@@H](Cc1c[nH]c2ccccc12)C(=O)NCCCCCCNc1c2c(nc3cc(Cl)ccc13)CCCC2")
"class 1"
>>> assigned_category("Cl.Cl.NC(Cc1c[nH]c2ccccc12)C(=O)NCCCCCCNc1c2c(nc3cc(Cl)ccc13)CCCC2 (racemic)")
"class 0"
>>> assigned_category("Cl.Cl.N[C@@H](Cc1c[nH]c2ccccc12)C(=O)NCCCNc1c2c(nc3ccccc13)CCCC2")
"class 0"
>>> assigned_category("Cl.Cl.N[C@@H](Cc1c[nH]c2ccccc12)C(=O)NCCCCNc1c2c(nc3ccccc13)CCCC2")
"class 1"
>>> assigned_category("N[C@@H](Cc1c[nH]c2ccccc12)C(=O)NCCCCNc1c2c(nc3cc(Cl)ccc13)CCCC2")
"class 1"
>>> assigned_category("COc1ccc2nc3c(c(NCCCCCNC(=O)[C@@H](N)Cc4c[nH]c5ccccc45)c2c1)CCCC3.Cl.Cl")
"class 1"
>>> assigned_category("Cl.Cl.N[C@@H](Cc1c[nH]c2ccccc12)C(=O)NCCCCCCCNc1c2c(nc3ccccc13)CCCC2")
"class 0"
>>> assigned_category("COc1ccc2nc3c(c(NCCNC(=O)[C@@H](N)Cc4c[nH]c5ccccc45)c2c1)CCCC3.Cl.Cl")
"class 1"
>>> assigned_category("Cl.Cl.N[C@@H](Cc1c[nH]c2ccccc12)C(=O)NCCNc1c2c(nc3ccccc13)CCCC2")
"class 0"
>>> assigned_category("N[C@@H](Cc1c[nH]c2ccccc12)C(=O)NCCCCCCCCNc1c2c(nc3ccccc13)CCCC2")
"class 0"
>>> assigned_category("COc1ccc2nc3c(c(NCCCCCCCNC(=O)[C@@H](N)Cc4c[nH]c5ccccc45)c2c1)CCCC3")
"class 1"
>>> assigned_category("N[C@@H](Cc1c[nH]c2ccccc12)C(=O)NCCCCCNc1c2c(nc3cc(Cl)ccc13)CCCC2")
"class 1"
>>> assigned_category("c1ccc2c(NCCCCCCCNc3c4c(nc5ccccc35)CCCC4)c3c(nc2c1)CCCC3")
"class 1"
>>> assigned_category("N[C@@H](Cc1c[nH]c2ccccc12)C(=O)NCCCNc1c2c(nc3cc(Cl)ccc13)CCCC2")
"class 0"
>>> assigned_category("COc1ccc2nc3c(c(NCCCCNC(=O)[C@@H](N)Cc4c[nH]c5ccccc45)c2c1)CCCC3.Cl.Cl")
"class 1"

* * *

// IC50 collected for Cholinesterase (Homo sapiens, UniProt P06276)
Readout Kind: IC50 (nM)

>>> reported_result("O=C(CCCCCNc1c2c(nc3cc(Cl)ccc13)CCCC2)NCCc1cc2ccccc2[nH]1")
180
>>> reported_result("Cl.Cl.N[C@@H](Cc1c[nH]c2ccccc12)C(=O)NCCCCCCCNc1c2c(nc3ccccc13)CCCC2")
25
>>> reported_result("N[C@@H](Cc1c[nH]c2ccccc12)C(=O)NCCNc1c2c(nc3cc(Cl)ccc13)CCCC2")
340
>>> reported_result("COc1ccc2nc3c(c(NCCNC(=O)[C@@H](N)Cc4c[nH]c5ccccc45)c2c1)CCCC3.Cl.Cl")
480

* * *

pIC50: −log10 of the molar value.
Endpoint: pIC50. System: Acetylcholinesterase (Homo sapiens, UniProt P22303). Items follow.
Sequence (P22303 whole entry): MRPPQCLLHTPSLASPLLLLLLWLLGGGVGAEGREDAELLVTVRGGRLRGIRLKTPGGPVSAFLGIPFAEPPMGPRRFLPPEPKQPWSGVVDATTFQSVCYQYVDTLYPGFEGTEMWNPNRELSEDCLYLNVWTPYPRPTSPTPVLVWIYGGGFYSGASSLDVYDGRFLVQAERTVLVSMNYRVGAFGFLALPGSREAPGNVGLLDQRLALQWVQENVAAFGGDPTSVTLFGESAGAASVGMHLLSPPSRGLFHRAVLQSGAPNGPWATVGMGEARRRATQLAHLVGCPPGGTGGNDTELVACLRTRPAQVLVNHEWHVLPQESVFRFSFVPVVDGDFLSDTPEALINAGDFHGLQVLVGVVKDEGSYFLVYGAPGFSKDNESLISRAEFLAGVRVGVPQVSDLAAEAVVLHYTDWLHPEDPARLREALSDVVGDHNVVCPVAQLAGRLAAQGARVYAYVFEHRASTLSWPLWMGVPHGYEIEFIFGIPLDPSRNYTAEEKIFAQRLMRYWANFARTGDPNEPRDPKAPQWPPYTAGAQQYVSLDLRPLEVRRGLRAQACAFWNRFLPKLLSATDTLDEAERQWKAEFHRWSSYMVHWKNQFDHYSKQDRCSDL
Readout Kind: pIC50

>>> reported_result("Cl.Cl.N[C@@H](Cc1c[nH]c2ccccc12)C(=O)NCCNc1c2c(nc3ccccc13)CCCC2")
6.14
>>> reported_result("N[C@@H](Cc1c[nH]c2ccccc12)C(=O)NCCCCCCCCNc1c2c(nc3ccccc13)CCCC2")
7.12
>>> reported_result("Cl.Cl.N[C@@H](Cc1c[nH]c2ccccc12)C(=O)NCCCCCCNc1c2c(nc3cc(Cl)ccc13)CCCC2")
8.20
>>> reported_result("N[C@@H](Cc1c[nH]c2ccccc12)C(=O)NCCCCCNc1c2c(nc3cc(Cl)ccc13)CCCC2")
7.12
>>> reported_result("COc1ccc2nc3c(c(NCCNC(=O)[C@@H](N)Cc4c[nH]c5ccccc45)c2c1)CCCC3.Cl.Cl")
5.24
>>> reported_result("Cl.Cl.N[C@@H](Cc1c[nH]c2ccccc12)C(=O)NCCCCCCCNc1c2c(nc3ccccc13)CCCC2")
6.92
>>> reported_result("Cl.Cl.N[C@@H](Cc1c[nH]c2ccccc12)C(=O)NCCCCCCCNc1c2c(nc3cc(Cl)ccc13)CCCC2")
7.72
>>> reported_result("Cl.Cl.N[C@@H](Cc1c[nH]c2ccccc12)C(=O)NCCCCCNc1c2c(nc3ccccc13)CCCC2")
6.49
>>> reported_result("COc1ccc2nc3c(c(NCCCCCNC(=O)[C@@H](N)Cc4c[nH]c5ccccc45)c2c1)CCCC3.Cl.Cl")
6.21
>>> reported_result("Cl.Cl.N[C@@H](Cc1c[nH]c2ccccc12)C(=O)NCCCCNc1c2c(nc3ccccc13)CCCC2")
5.89
>>> reported_result("COc1ccc2nc3c(c(NCCCCCCCCNC(=O)[C@@H](N)Cc4c[nH]c5ccccc45)c2c1)CCCC3")
5.89
>>> reported_result("O=C(CCCCCNc1c2c(nc3cc(Cl)ccc13)CCCC2)NCCc1cc2ccccc2[nH]1")
9.14
>>> reported_result("COc1ccc2nc3c(c(NCCCCNC(=O)[C@@H](N)Cc4c[nH]c5ccccc45)c2c1)CCCC3.Cl.Cl")
4.92
>>> reported_result("COc1ccc2nc3c(c(NCCCNC(=O)[C@@H](N)Cc4c[nH]c5ccccc45)c2c1)CCCC3.Cl.Cl")
5.89
>>> reported_result("N[C@@H](Cc1c[nH]c2ccccc12)C(=O)NCCNc1c2c(nc3cc(Cl)ccc13)CCCC2")
6.80
>>> reported_result("Cl.Cl.N[C@@H](Cc1c[nH]c2ccccc12)C(=O)NCCCNc1c2c(nc3ccccc13)CCCC2")
6.24
>>> reported_result("Cl.Cl.N[C@@H](Cc1c[nH]c2ccccc12)C(=O)NCCCCCCNc1c2c(nc3ccccc13)CCCC2")
6.92
